The reported numbers originate from ChEMBL document CHEMBL1697781.

System: Hepatotoxicity
Assay: FDA HLAED, alkaline phosphatase increase
Settings: human
MEASURED ATTRIBUTE: Alkaline Phosphatase Increase - Activity Score

1) Nc1ccn([C@H]2CC[C@@H](CO)O2)c(=O)n1 [ZALCITABINE] ... Inactive
2) Cc1cn([C@H]2C=C[C@@H](CO)O2)c(=O)[nH]c1=O [STAVUDINE] ... Inactive
3) CC(NC(C)(C)C)C(=O)c1cccc(Cl)c1 (centres undefined) [BUPROPION] ... Inactive
4) CC(=O)N1CCN(c2ccc(OCC3COC(Cn4ccnc4)(c4ccc(Cl)cc4Cl)O3)cc2)CC1 (centres undefined) [KETOCONAZOLE] ... Active
5) O=c1[nH]cc(F)c(=O)[nH]1 [FLUOROURACIL] ... Active

Reported Alkaline Phosphatase Increase - Activity Score of CC(C)C[C@H]1C(=O)N2CCC[C@H]2[C@]2(O)O[C@](NC(=O)[C@@H]3C=C4c5cccc6[nH]c(Br)c(c56)C[C@H]4N(C)C3)(C(C)C)C(=O)N12 [BROMOCRIPTINE] : Inactive

Measured Alkaline Phosphatase Increase - Activity Score of CC(=O)NO [ACETOHYDROXAMIC ACID] : Inactive

According to the records, this compound C[C@@H](O)[C@H]1C(=O)N2C(C(=O)O)=C(S[C@@H]3CN[C@H](C(=O)N(C)C)C3)[C@H](C)[C@H]12 [MEROPENEM] displays Alkaline Phosphatase Increase - Activity Score of Inactive

Record summary for CNC(=C[N+](=O)[O-])NCCSCc1csc(CN(C)C)n1 [NIZATIDINE] : reported Alkaline Phosphatase Increase - Activity Score = Inactive
